All values here come from ChEMBL document CHEMBL1221357.

Biological target: cGMP-dependent 3',5'-cyclic phosphodiesterase (Homo sapiens)
Sequence (O00408 whole entry): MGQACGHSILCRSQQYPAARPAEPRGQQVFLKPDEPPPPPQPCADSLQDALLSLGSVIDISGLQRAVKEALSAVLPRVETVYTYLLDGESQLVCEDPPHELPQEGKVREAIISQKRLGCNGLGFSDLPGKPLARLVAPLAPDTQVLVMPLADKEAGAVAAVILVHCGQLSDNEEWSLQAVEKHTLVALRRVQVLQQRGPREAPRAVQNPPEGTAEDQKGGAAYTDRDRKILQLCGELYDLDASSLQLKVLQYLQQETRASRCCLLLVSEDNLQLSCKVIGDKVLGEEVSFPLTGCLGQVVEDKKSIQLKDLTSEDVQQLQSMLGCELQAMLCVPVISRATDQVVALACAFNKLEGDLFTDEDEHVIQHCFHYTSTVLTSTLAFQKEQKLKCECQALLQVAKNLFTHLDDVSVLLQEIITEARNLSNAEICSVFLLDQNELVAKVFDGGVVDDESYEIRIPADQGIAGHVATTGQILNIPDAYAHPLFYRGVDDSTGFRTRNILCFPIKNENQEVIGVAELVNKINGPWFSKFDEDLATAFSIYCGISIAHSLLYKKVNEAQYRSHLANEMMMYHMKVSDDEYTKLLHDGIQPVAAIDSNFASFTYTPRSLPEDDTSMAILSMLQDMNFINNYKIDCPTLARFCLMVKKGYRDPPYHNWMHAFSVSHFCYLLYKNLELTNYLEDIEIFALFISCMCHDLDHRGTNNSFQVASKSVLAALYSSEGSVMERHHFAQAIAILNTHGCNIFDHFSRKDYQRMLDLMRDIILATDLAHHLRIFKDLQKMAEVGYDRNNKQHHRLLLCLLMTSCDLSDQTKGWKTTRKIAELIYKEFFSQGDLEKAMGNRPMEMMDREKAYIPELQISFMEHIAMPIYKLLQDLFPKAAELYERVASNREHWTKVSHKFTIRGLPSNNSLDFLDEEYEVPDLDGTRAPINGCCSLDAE
Test: Inhibition of human recombinant PDE2A3
MEASURED ATTRIBUTE: IC50

[Q] What IC50 value was documented for this compound, `CC(C)(O)CCc1ccc(OCc2cc(-c3cccc(OC(F)F)c3)c3ncccc3c2)cc1` ?
[A] ≥ 57 µM

* * *

Reported values: IC50 for 3',5'-cyclic-AMP phosphodiesterase 4B (Homo sapiens, UniProt Q07343), one per item.
Please state the figure in nM; there is no need to write the unit.

{"SMILES NOTATION": "Cc1cccc(-c2cc(COc3ccc(CCC#N)cc3)cc3cccnc23)c1", "IC50 / nM": 369}

[Q] What IC50 value was documented for this molecule, `COc1cccc(-c2cc(COc3ccc(CCC#N)cc3)cc3cccnc23)c1` ?
[A] 86.5

[Q] What IC50 value was documented for this molecule, `COc1cccc(-c2cc(COc3cccc(Cl)c3)cc3cccnc23)c1` ?
[A] 389

[Q] What IC50 value was documented for this molecule, `N#CCCc1ccc(OCc2cc(-c3ccccc3)c3ncccc3c2)cc1` ?
[A] 120

[Q] What IC50 value was documented for this molecule, `N#CCCc1ccc(OCc2cc(-c3cccc(OC(F)(F)F)c3)c3ncccc3c2)cc1` ?
[A] 96.3

[Q] What IC50 value was documented for this molecule, `COc1cccc(-c2cc(COc3ccccc3Cl)cc3cccnc23)c1` ?
[A] 87

[Q] What IC50 value was documented for this molecule, `N#CCCc1ccc(OCc2cc(-c3cccc(F)c3)c3ncccc3c2)cc1` ?
[A] 92.7
